The reported measurements were obtained from the supplement of paper PMC9254222.

Renilla luciferase signal values by entry
System: HEK293T (UBE3A T485A transfected, BAR Wnt reporter)
Assay: Renilla luciferase signal (cell health) relative to plate median (fold (linear ratio)); higher = higher Renilla signal
Settings: concentration: 0.1 uM; 24 h
Whole data set: some 1,100 compounds, median “Renilla luciferase signal (cell health) relative to plate median” near 0.97, cut for the highest 2% near 1.6. This excerpt belongs to a sample that is enriched for the highest values.
experimental-endpoint: Renilla luciferase signal

compound="O=C(Nc1ccc(Cl)cc1)Nc1ccc(Cl)c(Cl)c1 [Triclocarban]" experimental_value=1
compound="CC1(C)NC(=O)N(c2ccc([N+](=O)[O-])c(C(F)(F)F)c2)C1=O [Nilutamide]" experimental_value=1.05
compound="CCCCC(CC)CO (configuration not stated) [2-Ethyl-1-hexanol]" experimental_value=0.758
compound="CN(C)[C@@H]1C(O)=C(C(N)=O)C(=O)[C@@]2(O)C(O)=C3C(=O)c4c(O)cccc4[C@@](C)(O)[C@H]3[C@H](O)[C@@H]12.Cl [Oxytetracycline hydrochloride]" experimental_value=0.959
compound="CCc1ccc(O)c(C(C)(C)C)c1 [2-tert-Butyl-4-ethylphenol]" experimental_value=1.28
compound="CC=Cc1ccc(O)c(OC)c1 [Isoeugenol]" experimental_value=0.954
compound=CCOc1ccc2[nH]cc(C(=O)NCc3ccccc3)c(=O)c2n1 experimental_value=1.05
compound=COc1cccc(-c2ccc(/C=C\CN3CCCCCC3)cc2Cl)c1.Cl experimental_value=1.01
compound=O=C(O)c1cccc(C[C@@H]2COc3ccc(OCc4nc5cc(F)ccc5s4)cc3[C@@H]2O)c1 experimental_value=1.04
compound="CC(=O)S[C@H](C(=O)N[C@H]1Cc2ccccc2[C@H]2CCC[C@@H](C(=O)O)N2C1=O)C(C)C [Ilepatril]" experimental_value=0.879
compound="CC(C)CCCCCCOC(=O)C1CCCCC1C(=O)OCCCCCCC(C)C (configuration not stated) [Diisononyl cyclohexane-1,2-dicarboxylate]" experimental_value=0.946
compound="CC(=O)O[C@]1(C(C)=O)CC[C@H]2[C@@H]3C=C(Cl)C4=CC(=O)[C@@H]5C[C@@H]5[C@]4(C)[C@H]3CC[C@@]21C [Cyproterone acetate]" experimental_value=1.06
compound="CC(C)CC(C=O)NC(=O)C(CC(C)C)NC(=O)C(CC(C)C)NC(=O)OCc1ccccc1 (configuration not stated)" experimental_value=0.675
compound="CCCCCCCC(=O)O [Octanoic acid]" experimental_value=0.834
compound="O=c1c(-c2ccc(O)cc2)coc2cc(O)cc(O)c12 [Genistein]" experimental_value=0.604
compound=NC(=O)N(O)[C@@H]1C=C[C@H](Oc2cccc(Oc3ccc(F)cc3)c2)C1 experimental_value=1.08
compound="CN(C)[C@@H]1C(O)=C(C(N)=O)C(=O)[C@@]2(O)C(O)=C3C(=O)c4c(O)cccc4[C@@](C)(O)[C@H]3C[C@@H]12 [Tetracycline]" experimental_value=0.672
